SUBJECT OF TEST: C. albicans enolase 1 (rCaEno1) (Candida albicans, UniProt P30575)
Sequence (P30575 whole entry): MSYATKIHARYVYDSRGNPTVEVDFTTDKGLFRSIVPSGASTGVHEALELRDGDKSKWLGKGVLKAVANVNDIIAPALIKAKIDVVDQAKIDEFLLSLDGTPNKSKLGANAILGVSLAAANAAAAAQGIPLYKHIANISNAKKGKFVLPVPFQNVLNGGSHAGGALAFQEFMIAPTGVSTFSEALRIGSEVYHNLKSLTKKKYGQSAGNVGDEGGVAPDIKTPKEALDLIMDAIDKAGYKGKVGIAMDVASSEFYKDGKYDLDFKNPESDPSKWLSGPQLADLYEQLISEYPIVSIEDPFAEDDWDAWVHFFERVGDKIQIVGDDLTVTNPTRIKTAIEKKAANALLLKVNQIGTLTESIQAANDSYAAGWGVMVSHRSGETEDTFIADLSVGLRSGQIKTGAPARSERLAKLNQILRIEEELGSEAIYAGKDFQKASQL
pKd: −log10 of the molar value.
QUANTITY NAME: pKd

INPUT: Quote pKd reported for NCCOCCOCCNC(=O)Cc1ccc(Nc2nc(NCc3ccc(F)cc3)nc(NCC3CCCCC3)n2)cc1 [ENOblock] please.
OUTPUT: ~6.52

The origin of these recorded values is paper PMC6742966.
